# Test system: BDF1 mice, P388 leukemia ip, median survival T/C
# Measurement Protocol: NCI In Vivo Anticancer Drug Screen. Data for tumor model P388 Leukemia (intraperitoneal) in B6D2F1 (BDF1) mice
# Condition Label: endpoint: median survival time; dose: 200.0 mg/kg/injection; schedule: Q04DX003 (ip); vehicle: saline with Tween-80; higher = longer survival
Toxic doses and inconclusive results are not listed.
Items are presented alongside their recorded T/C.
Quantity: T/C

> print(dat)
                                   molecule            result
1              ON=C(CSCc1ccccc1)CSCc1ccccc1   88 % of control
2  CC(=O)OCC(=O)[C@@]12OC(C)(C)O[C@@H]1C[C@H]1[C@@H]3CC(C=O)=C4C=C(OCCCl)CC[C@]4(C)[C@@]3(F)[C@@H](O)C[C@@]12C  118 % of control
3  COc1ccc(OC)c(C(C)(O)CC(=O)O)c1 (stereo not drawn)  103 % of control
